- System: Phakopsora pachyrhizi containing the amino acid substitution F129L in the mitochondrial cytochrome b protein
- Protocol text: Use Example 1: protective control of soybean rust on soybeans (PHAKPA P2)
- Assay type: in vivo
- Conditions used: inoculated 2 days after spraying, 4 ppm, % diseased leaf area
Reported endpoint: % PHAKPA (F129L) Disease level P2 at 4 ppm (%)

COC/C(=N\OCc1c(Cl)cccc1/C(=N\OC)C(=O)OC)c1cc(F)c(F)c(F)c1	19
COC/C(=N\OCc1c(Cl)cccc1/C(=N\OC)C(=O)OC)c1ccc(Cl)c(F)c1	35
COC/C(=N\OCc1c(Cl)cccc1/C(=N\OC)C(=O)OC)c1cccc(C)c1	71
CNC(=O)/C(=N/OC)c1cccc(Cl)c1CO/N=C(\COC)c1ccccc1Cl	92
CO/C=C(/C(=O)OC)c1cccc(Cl)c1CO/N=C(\COC)c1c(F)ccc(F)c1F	1
COC/C(=N\OCc1c(Cl)cccc1/C(=N\OC)C(=O)OC)c1cccc(OC)c1	67
COC/C(=N\OCc1c(Cl)cccc1/C(=N\OC)C(=O)OC)c1ccc(Cl)cc1	68
CNC(=O)/C(=N/OC)c1cccc(Cl)c1CO/N=C(\COC)c1ccc(F)cc1	16
CCOC/C(=N\OCc1c(F)cccc1/C(=C\OC)C(=O)OC)c1ccc(F)cc1	20
COC/C(=N\OCc1c(Cl)cccc1/C(=N\OC)C(=O)OC)c1ccc(F)c(F)c1	11
CNC(=O)/C(=N/OC)c1cccc(Cl)c1CO/N=C(\COC)c1ccccc1F	7
CCOC/C(=N\OCc1c(Cl)cccc1/C(=C\OC)C(=O)OC)c1ccc(Cl)cc1	60
CO/C=C(/C(=O)OC)c1cccc(Cl)c1CO/N=C(\COC)c1cccc(OC)c1	4
CNC(=O)/C(=N/OC)c1cccc(Cl)c1CO/N=C(\COC)c1ccccc1C	82
CO/C=C(/C(=O)OC)c1cccc(Cl)c1CO/N=C(\COC)c1ccc(Cl)cc1Cl	63
CNC(=O)/C(=N/OC)c1cccc(Cl)c1CO/N=C(\COC)c1cccc(Cl)c1	6
CO/C=C(/C(=O)OC)c1cccc(Cl)c1CO/N=C(\COC)c1ccccc1C	41

====

- Test system: Puccinia recondita
- Protocol text: Use Example 4: preventative control of brown rust on wheat (PUCCRT P7)
- Format: in vivo
- Conditions used: inoculated seven days after spraying, 4 ppm, % diseased leaf area
One threshold, 30%, splits the recorded % PUCCRT Disease level P7 at 4 ppm values: lower ones are Criterion met, equal or higher ones are Criterion not met.

CNC(=O)/C(=N/OC)c1cccc(Cl)c1CO/N=C(\COC)c1cc(F)c(F)c(F)c1	Criterion met
CCOC/C(=N\OCc1c(Cl)cccc1/C(=C\OC)C(=O)OC)c1cccc(F)c1	Criterion not met
COC/C(=N\OCc1c(Cl)cccc1/C(=N\OC)C(=O)OC)c1ccc(F)cc1F [compound 62]	Criterion not met
CNC(=O)/C(=N/OC)c1cccc(Cl)c1CO/N=C(\COC)c1c(F)cc(F)cc1F	Criterion met
CCOC/C(=N\OCc1c(Br)cccc1/C(=C\OC)C(=O)OC)c1ccc(F)cc1	Criterion met
COC/C(=N\OCc1c(Cl)cccc1/C(=N\OC)C(=O)OC)c1ccc(F)c(F)c1F	Criterion not met
CNC(=O)/C(=N/OC)c1cccc(Cl)c1CO/N=C(\COC)c1c(F)cc(Cl)cc1F	Criterion not met

====

- System: Phakopsora pachyrhizi containing the amino acid substitution F129L in the mitochondrial cytochrome b protein
- Protocol text: Use Example 1: protective control of soybean rust on soybeans (PHAKPA P2)
- Format: in vivo
- Conditions used: inoculated 2 days after spraying, 4 ppm, % diseased leaf area
Rule: 1 (yes) for % PHAKPA (F129L) Disease level P2 at 4 ppm not less than 5%, 0 (no) for anything less.

CNC(=O)/C(=N/OC)c1cccc(Cl)c1CO/N=C(\COC)c1cccc(C#N)c1	1 (yes)
CO/C=C(/C(=O)OC)c1cccc(Cl)c1CO/N=C(\COC1CC1)c1ccccc1	1 (yes)
CO/C=C(/C(=O)OC)c1cccc(Cl)c1CO/N=C(\COC)c1cccc(Cl)c1F	1 (yes)
CNC(=O)/C(=N/OC)c1cccc(Cl)c1CO/N=C(\COC)c1ccc(Cl)cc1Cl	1 (yes)
CO/C=C(/C(=O)OC)c1cccc(Br)c1CO/N=C(/C#Cc1ccc(F)cc1)COC	0 (no)
CCOCC(=NOCc1c(Cl)cccc1C(=COC)C(=O)OC)c1ccccc1F	1 (yes)
COC/C(=N\OCc1c(Br)cccc1/C(=N\OC)C(=O)OC)c1ccccc1	1 (yes)
COC/C(=N\OCc1c(Cl)cccc1/C(=N\OC)C(=O)OC)c1ccc(F)c(F)c1F	1 (yes)
CO/C=C(/C(=O)OC)c1cccc(Cl)c1CO/N=C(\COC)c1cccc(Cl)c1	0 (no)
CCOC/C(=N\OCc1c(Br)cccc1/C(=C\OC)C(=O)OC)c1ccc(F)cc1	1 (yes)
CCOC/C(=N\OCc1c(Cl)cccc1/C(=C\OC)C(=O)OC)c1c(F)cc(F)cc1F	1 (yes)
CO/C=C(/C(=O)OC)c1cccc(Cl)c1CO/N=C(\COC)c1cc(Cl)ccc1F	1 (yes)
CO/C=C(/C(=O)OC)c1cccc(Cl)c1CO/N=C(\COC)c1ccccc1	0 (no)
CNC(=O)/C(=N/OC)c1cccc(Cl)c1CO/N=C(\COC)c1cccc(F)c1F	1 (yes)
